Measured MLD, listed per entry.
Tested on: Mus musculus
Assay: Acute toxicity in iv dosed ICR mouse assessed as mortality after 24 hrs
Assay type: organism-based
Conditions: in vivo
READOUT KIND: MLD

1) CSc1c2sc(C3=C(C(=O)[O-])N4C(=O)[C@H]([C@@H](C)O)[C@H]4[C@H]3C)cn2c[n+]1CCN :: 500 mg/kg
2) CO[C@H](CN)C[n+]1cn2cc(C3=C(C(=O)[O-])N4C(=O)[C@H]([C@@H](C)O)[C@H]4[C@H]3C)sc2c1SC :: > 500 mg/kg
3) CSc1c2sc(C3=C(C(=O)[O-])N4C(=O)[C@H]([C@@H](C)O)[C@H]4[C@H]3C)cn2c[n+]1Cc1cccc(CSC(=N)N)c1 :: 250 mg/kg
4) CSc1c2sc(C3=C(C(=O)[O-])N4C(=O)[C@H]([C@@H](C)O)[C@H]4[C@H]3C)cn2c[n+]1C[C@H](O)CN :: > 500 mg/kg
5) CSc1c2sc(C3=C(C(=O)[O-])N4C(=O)[C@H]([C@@H](C)O)[C@H]4[C@H]3C)cn2c[n+]1C[C@H](C)CN :: 500 mg/kg
6) CSc1c2sc(C3=C(C(=O)[O-])N4C(=O)[C@H]([C@@H](C)O)[C@H]4[C@H]3C)cn2c[n+]1CCCSC(=N)N :: 250 mg/kg
7) CSc1c2sc(C3=C(C(=O)[O-])N4C(=O)[C@H]([C@@H](C)O)[C@H]4[C@H]3C)cn2c[n+]1C[C@@H](CN)OCF :: 500 mg/kg
8) CSc1c2sc(C3=C(C(=O)[O-])N4C(=O)[C@H]([C@@H](C)O)[C@H]4[C@H]3C)cn2c[n+]1CCS(=O)(=O)CCN :: > 500 mg/kg
9) CSc1c2sc(C3=C(C(=O)[O-])N4C(=O)[C@H]([C@@H](C)O)[C@H]4[C@H]3C)cn2c[n+]1[C@H]1CCNC1 :: 500 mg/kg
10) CSc1c2sc(C3=C(C(=O)[O-])N4C(=O)[C@H]([C@@H](C)O)[C@H]4[C@H]3C)cn2c[n+]1CCCN :: 250 mg/kg
11) CSc1c2sc(C3=C(C(=O)[O-])N4C(=O)[C@H]([C@@H](C)O)[C@H]4[C@H]3C)cn2c[n+]1CCCCCCN :: 250 mg/kg
